Each recorded value in this set is attributed to paper PMC10726135.

- System under test: HNF4alpha8 (COS-7 nuclear extract) (Homo sapiens, UniProt P41235-5 1-452)
- Sequence: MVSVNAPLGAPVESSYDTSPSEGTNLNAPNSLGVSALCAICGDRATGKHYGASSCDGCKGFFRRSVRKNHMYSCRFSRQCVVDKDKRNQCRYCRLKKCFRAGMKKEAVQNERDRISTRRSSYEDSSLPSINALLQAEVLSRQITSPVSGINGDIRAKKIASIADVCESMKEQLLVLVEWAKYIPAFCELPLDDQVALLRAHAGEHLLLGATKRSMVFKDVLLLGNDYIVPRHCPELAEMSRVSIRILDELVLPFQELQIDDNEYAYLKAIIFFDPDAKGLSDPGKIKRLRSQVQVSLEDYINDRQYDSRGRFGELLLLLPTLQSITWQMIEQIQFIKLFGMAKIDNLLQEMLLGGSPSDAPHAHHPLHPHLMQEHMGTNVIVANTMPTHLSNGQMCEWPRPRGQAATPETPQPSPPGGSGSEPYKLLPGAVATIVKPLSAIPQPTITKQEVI
- Procedure summary: protein-binding microarray; COS-7 nuclear extract on double-stranded Agilent 4x180k PBM; binding buffer, salt, pH and temperature not given in the material; high values mean tight binding
- Condition context: chain copies: 2; label: 3' end of strand 1 on the slide; dsDNA, one strand shown
The full ranking holds about 18,000 sequences; the median of “log2 normalized intensity” is about 0.36, and the highest 2% start at about 7.3. Many of the other results were omitted from the sample, so the highest values are more common in it than they were.
Fulfilled if binding signal is below 4 log2 normalized intensity. Not fulfilled if not; exact matches included in Not fulfilled.

Ordered residues: GTGGCTACCTGTGCAGATATTTAACCTTTGGCCTAGGGAGATTAGAGTATCGGTCGA
Class assignment: Not fulfilled

Ordered residues: TTTCATTCCACTGACTTGCAACCTTTGCCCGCCTAGGGAGATTAGAGTATCGGTCGA
Class assignment: Not fulfilled

Ordered residues: CATTTTTCTCTCTTGGACTCTTGGACTCCCGCCTAGGGAGATTAGAGTATCGGTCGA
Class assignment: Not fulfilled

*Q* Input CATTGATAATTCAGTTTCATTGCACTTTGCGCCTAGGGAGATTAGAGTATCGGTCGA ; condition: binding signal strictly below 4 log2 normalized intensity. Does it hold?
*A* Not fulfilled

*Q* Input AACATGGACTTTGTTGTTTGCCTCTGAAAAGCCTAGGGAGATTAGAGTATCGGTCGA ; condition: binding signal strictly below 4 log2 normalized intensity. Does it hold?
*A* Fulfilled

*Q* Input TGTATACTTATGTAGAAAGATATCTCTGTGGCCTAGGGAGATTAGAGTATCGGTCGA ; condition: binding signal strictly below 4 log2 normalized intensity. Does it hold?
*A* Fulfilled

*Q* Input AGTCCATGTGTTAAATAATAACACTCCCATGCCTAGGGAGATTAGAGTATCGGTCGA ; condition: binding signal strictly below 4 log2 normalized intensity. Does it hold?
*A* Fulfilled

*Q* Input TTTGGACTTTGGACTTGGGACTTTCGAGTTGCCTAGGGAGATTAGAGTATCGGTCGA ; condition: binding signal strictly below 4 log2 normalized intensity. Does it hold?
*A* Not fulfilled

*Q* Input AGTGCCATGTAATCAAACTGAACTTTGAAAGCCTAGGGAGATTAGAGTATCGGTCGA ; condition: binding signal strictly below 4 log2 normalized intensity. Does it hold?
*A* Not fulfilled

*Q* Input AACAAAGGTCGGTGGTATGTGTGTGCTTTAGCCTAGGGAGATTAGAGTATCGGTCGA ; condition: binding signal strictly below 4 log2 normalized intensity. Does it hold?
*A* Fulfilled
